Item-by-item account of Plasma stability (h) mouse
# method: BTK FAC plasma stability assay, mouse plasma
# Assay type: in vitro ADME
# protocol-conditions: incubation to 24 h
Form entry: value (h) — number only.

For CCCCCCCCCCCN(C(=O)CCCCCCCCCC(=O)O)C(CCC(=O)NCCOCCOCCOCCOCCOCCOCCOCCOCCOCCOCCOCCOCCOCCOCCOCCOCCOCCOCCOCCOCCOCCOCCOCCOCCC(=O)NCC(=O)OC(C)(C)c1ccc(C(=O)Nc2cc(F)cc(-c3ncnc4[nH]c(-c5ccc(CCN6CCC7(CC6)CCN(C(=O)c6ccc(OC)c(N8CCC(=O)NC8=O)c6)CC7)cc5)cc34)c2C)c(F)c1)C(=O)O (stereo not drawn) the molecule record lists Plasma stability (h) mouse as 27

For CCCCCCCCCCCN(C(=O)CCCCCCCCCC(=O)O)C(CCC(=O)NCCOCCOCCOCCOCCOCCOCCOCCOCCOCCOCCOCCOCCC(=O)NCC(=O)NCN(C(=O)c1ccc(C(C)(C)O)cc1F)c1cc(F)cc(-c2ncnc3[nH]c(-c4ccc(CCN5CCC6(CC5)CCN(C(=O)c5ccc(OC)c(N7CCC(=O)NC7=O)c5)CC6)cc4)cc23)c1C)C(=O)O (stereo not drawn) the molecule record lists Plasma stability (h) mouse as 38.6

For CCCCCCCCCCCN(C(=O)CCCCCCCCCC(=O)O)C(CCC(=O)NCCOCCOCCOCCOCCOCCOCCOCCOCCOCCOCCOCCOCCC(=O)NCc1cc(C(=O)OC(C)(C)c2ccc(C(=O)Nc3cc(F)cc(-c4ncnc5[nH]c(-c6ccc(CCN7CCC8(CC7)CCN(C(=O)c7ccc(OC)c(N9CCC(=O)NC9=O)c7)CC8)cc6)cc45)c3C)c(F)c2)ccn1)C(=O)O (stereo not drawn) the molecule record lists Plasma stability (h) mouse as 30.5

---

Item-by-item account of Duration of BTK degradation in mouse ≥90%
# experimental-system: BTK C481S (Homo sapiens, UniProt Q06187, C481S)
# Construct: endogenous in cells; host or cells: TMD8 BTK C481S mutant tumour xenografts in mice
# Sequence (Q06187 whole entry C481S): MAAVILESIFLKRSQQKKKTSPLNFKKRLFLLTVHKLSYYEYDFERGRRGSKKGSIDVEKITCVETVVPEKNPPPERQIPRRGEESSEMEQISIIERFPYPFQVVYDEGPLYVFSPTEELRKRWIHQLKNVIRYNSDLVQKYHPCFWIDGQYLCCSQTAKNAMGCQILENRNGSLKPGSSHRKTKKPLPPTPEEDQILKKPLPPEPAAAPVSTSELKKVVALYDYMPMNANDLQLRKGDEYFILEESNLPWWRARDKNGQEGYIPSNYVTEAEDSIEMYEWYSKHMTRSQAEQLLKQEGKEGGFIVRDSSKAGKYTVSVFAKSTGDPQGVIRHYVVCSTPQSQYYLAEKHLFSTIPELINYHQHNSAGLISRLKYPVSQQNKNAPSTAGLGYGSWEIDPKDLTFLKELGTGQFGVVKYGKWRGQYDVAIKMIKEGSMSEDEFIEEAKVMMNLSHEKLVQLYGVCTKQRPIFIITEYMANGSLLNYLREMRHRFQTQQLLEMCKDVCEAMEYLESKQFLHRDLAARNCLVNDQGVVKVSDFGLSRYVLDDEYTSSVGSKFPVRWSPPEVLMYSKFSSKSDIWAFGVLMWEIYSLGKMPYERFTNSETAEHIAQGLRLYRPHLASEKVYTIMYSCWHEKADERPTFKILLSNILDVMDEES
# method: PD screen in TMD8 BTK C481S mutant tumor-bearing mice, BTK levels and compound concentrations in blood and tumor
# Type: in vivo, mouse
# protocol-conditions: i.v.; 25 umol/kg
Form entry: value (days) — number only.

CCCCCCCCCCCN(C(=O)CCCCCCCCCC(=O)O)[C@@H](CCC(=O)NCCOCCOCCOCCOCCOCCOCCOCCOCCOCCOCCOCCOCCC(=O)N(CCC(=O)OC(C)(C)c1ccc(C(=O)Nc2cc(F)cc(-c3ncnc4[nH]c(-c5ccc(CCN6CCC7(CC6)CCN(C(=O)c6ccc(OC)c(N8CCC(=O)NC8=O)c6)CC7)cc5)cc34)c2C)c(F)c1)CC(=O)O)C(=O)O [Example A24] :: 10
CCCCCCCCCCCN(C(=O)CCCCCCCCCC(=O)O)C(CCC(=O)NCCOCCOCCOCCOCCOCCOCCOCCOCCOCCOCCOCCOCCC(=O)NCc1cc(C(=O)OC(C)(C)c2ccc(C(=O)Nc3cc(F)cc(-c4ncnc5[nH]c(-c6ccc(CCN7CCC8(CC7)CCN(C(=O)c7ccc(OC)c(N9CCC(=O)NC9=O)c7)CC8)cc6)cc45)c3C)c(F)c2)ccn1)C(=O)O (stereo not drawn) [Example A26] :: 7

For COc1ccc(C(=O)N2CCC3(CCN(CCc4ccc(-c5cc6c(-c7cc(F)cc(NC(=O)c8ccc(C(C)(C)OC(=O)CNC(=O)CCOCCOCCOCCOCCOCCOCCOCCOCCOCCOCCOCCOCCNC(=O)C(CCCCCCCCCCCCCCP(=O)(O)O)(CCCCCCCCCCCCCCP(=O)(O)O)C(=O)O)cc8F)c7C)ncnc6[nH]5)cc4)CC3)CC2)cc1N1CCC(=O)NC1=O [Example A28] the compound record lists Duration of BTK degradation in mouse ≥90% as 10

---

# method: BTK FAC plasma stability assay, dog plasma
# Format: in vitro ADME
# protocol-conditions: 24 h
experimental-readout: % Release of degrader after 24 h dog (%)
Form entry: value (%) — number only.

Answered cases to consult:
CCCCCCCCCCCN(C(=O)CCCCCCCCCC(=O)O)[C@@H](CCC(=O)N(CCNC(=O)CCOCCOCCOCCOCCOCCOCCOCCOCCOCCOCCOCCOC)CC(=O)OC(C)(C)c1ccc(C(=O)Nc2cc(F)cc(-c3ncnc4[nH]c(-c5ccc(CCN6CCC7(CC6)CCN(C(=O)c6ccc(OC)c(N8CCC(=O)NC8=O)c6)CC7)cc5)cc34)c2C)c(F)c1)C(=O)O [Example A37] :: 2.2
CCCCCCCCCCCN(C(=O)CCCCCCCCCC(=O)O)C(CCC(=O)NCCOCCOCCOCCOCCOCCOCCOCCOCCC(=O)NCC(=O)OC(C)(C)c1ccc(C(=O)Nc2cc(F)cc(-c3ncnc4[nH]c(-c5ccc(CCN6CCC7(CC6)CCN(C(=O)c6ccc(OC)c(N8CCC(=O)NC8=O)c6)CC7)cc5)cc34)c2C)c(F)c1)C(=O)O (stereo not drawn) [Example A8] :: 13.1

Switching to the query record.
For CCCCCCCCCCCN(C(=O)CCCCCCCCCC(=O)O)C(CCC(=O)NCCOCCOCCOCCOCCOCCOCCOCCOCCOCCOCCOCCOCCC(=O)NCC(=O)NCN(C(=O)c1ccc(C(C)(C)O)cc1F)c1cc(F)cc(-c2ncnc3[nH]c(-c4ccc(CCN5CCC6(CC5)CCN(C(=O)c5ccc(OC)c(N7CCC(=O)NC7=O)c5)CC6)cc4)cc23)c1C)C(=O)O (stereo not drawn) [Example A36] the compound record lists % Release of degrader after 24 h dog as 0

---

Item-by-item account of Plasma stability (h) PBS
# method: BTK FAC plasma stability assay, PBS buffer arm
# Type: physicochemical
# protocol-conditions: incubation to 24 h

CCCCCCCCCCCN(C(=O)CCCCCCCCCC(=O)O)[C@@H](CCC(=O)NCC(=O)OC(C)(C)c1ccc(C(=O)Nc2cc(F)cc(-c3ncnc4[nH]c(-c5ccc(CCN6CCC7(CC6)CCN(C(=O)c6ccc(OC)c(N8CCC(=O)NC8=O)c6)CC7)cc5)cc34)c2C)c(F)c1)C(=O)O :: >48 h

For CCCCCCCCCCCN(C(=O)CCCCCCCCCC(=O)O)C(CCC(=O)NCCOCCOCCOCCOCCOCCOCCOCCOCCOCCOCCOCCOCCC(=O)NCC(=O)OC(C)(C)c1ccc(C(=O)Nc2cc(F)cc(-c3ncnc4[nH]c(-c5ccc(CCN6CCC7(CC6)CCN(C(=O)c6ccc(OC)c(N8CCC(=O)NC8=O)c6)CC7)cc5)cc34)c2C)c(F)c1)C(=O)O (stereo not drawn) the compound record lists Plasma stability (h) PBS as >48 h

For CCCCCCCCCCCN(C(=O)CCCCCCCCCC(=O)O)C(CCC(=O)NCCOCCOCCOCCOCCOCCOCCOCCOCCOCCOCCOCCOCCC(=O)N(CC)CC(=O)OC(C)(C)c1ccc(C(=O)Nc2cc(F)cc(-c3ncnc4[nH]c(-c5ccc(CCN6CCC7(CC6)CCN(C(=O)c6ccc(OC)c(N8CCC(=O)NC8=O)c6)CC7)cc5)cc34)c2C)c(F)c1)C(=O)O (stereo not drawn) the compound record lists Plasma stability (h) PBS as >48 h

---

# method: BTK FAC plasma stability assay, mouse plasma
# Format: in vitro ADME
# protocol-conditions: incubation to 24 h
experimental-readout: Plasma stability (h) mouse

Answered cases to consult:
CCCCCCCCCCCN(C(=O)CCCCCCCCCC(=O)O)C(CCC(=O)NCCOCCOCCOCCOCCOCCOCCOCCOCCOCCOCCOCCOCCC(=O)NCC(=O)NCn1c(-c2ccc(CCN3CCC4(CC3)CCN(C(=O)c3ccc(OC)c(N5CCC(=O)NC5=O)c3)CC4)cc2)cc2c(-c3cc(F)cc(NC(=O)c4ccc(C(C)(C)O)cc4F)c3C)ncnc21)C(=O)O (stereo not drawn) :: >48 h
CCCCCCCCCCCN(C(=O)CCCCCCCCCC(=O)O)C(CCC(=O)NCCOCCOCCOCCOCCOCCOCCOCCOCCOCCOCCOCCOCCC(=O)N1CCC(CC(=O)OC(C)(C)c2ccc(C(=O)Nc3cc(F)cc(-c4ncnc5[nH]c(-c6ccc(CCN7CCC8(CC7)CCN(C(=O)c7ccc(OC)c(N9CCC(=O)NC9=O)c7)CC8)cc6)cc45)c3C)c(F)c2)CC1)C(=O)O (stereo not drawn) :: >48 h

For CCCCCCCCCCCN(C(=O)CCCCCCCCCC(=O)O)[C@H](CCC(=O)NCCOCCOCCOCCOCCOCCOCCOCCOCCOCCOCCOCCOCCC(=O)NCC(=O)OC(C)(C)c1ccc(C(=O)Nc2cc(F)cc(-c3ncnc4[nH]c(-c5ccc(CCN6CCC7(CC6)CCN(C(=O)c6ccc(OC)c(N8CCC(=O)NC8=O)c6)CC7)cc5)cc34)c2C)c(F)c1)C(=O)O the compound record lists Plasma stability (h) mouse as >48 h
